IC50 reference
SYSTEM_NAME: GABA B receptor (Rattus norvegicus, UniProt O88871+Q9Z0U4)
Sequence (Q9Z0U4 whole entry): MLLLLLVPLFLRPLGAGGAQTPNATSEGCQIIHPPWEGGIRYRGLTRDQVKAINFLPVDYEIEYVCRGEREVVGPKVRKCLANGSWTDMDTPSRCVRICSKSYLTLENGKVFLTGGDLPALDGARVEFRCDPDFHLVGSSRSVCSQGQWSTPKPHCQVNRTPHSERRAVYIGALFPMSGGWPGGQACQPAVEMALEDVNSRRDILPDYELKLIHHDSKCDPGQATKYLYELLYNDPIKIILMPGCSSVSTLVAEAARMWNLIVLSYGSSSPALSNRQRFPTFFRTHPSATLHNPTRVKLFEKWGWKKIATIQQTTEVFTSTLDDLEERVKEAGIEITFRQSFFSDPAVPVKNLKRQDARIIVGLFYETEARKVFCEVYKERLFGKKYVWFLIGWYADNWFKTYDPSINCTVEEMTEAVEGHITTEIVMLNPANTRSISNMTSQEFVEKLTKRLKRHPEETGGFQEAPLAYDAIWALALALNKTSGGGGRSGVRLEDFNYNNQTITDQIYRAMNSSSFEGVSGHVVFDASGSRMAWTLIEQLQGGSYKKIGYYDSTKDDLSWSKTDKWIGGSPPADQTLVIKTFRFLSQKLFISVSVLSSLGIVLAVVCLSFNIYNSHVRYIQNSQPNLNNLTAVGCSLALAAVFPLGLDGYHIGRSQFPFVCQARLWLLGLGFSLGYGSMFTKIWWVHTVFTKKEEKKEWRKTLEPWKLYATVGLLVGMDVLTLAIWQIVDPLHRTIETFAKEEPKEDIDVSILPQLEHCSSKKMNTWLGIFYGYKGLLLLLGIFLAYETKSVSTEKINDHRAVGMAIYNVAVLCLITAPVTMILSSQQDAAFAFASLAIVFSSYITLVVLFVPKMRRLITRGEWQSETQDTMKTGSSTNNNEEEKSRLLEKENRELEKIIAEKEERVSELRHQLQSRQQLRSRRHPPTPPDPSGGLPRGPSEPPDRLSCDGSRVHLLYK
Sequence (O88871 whole entry): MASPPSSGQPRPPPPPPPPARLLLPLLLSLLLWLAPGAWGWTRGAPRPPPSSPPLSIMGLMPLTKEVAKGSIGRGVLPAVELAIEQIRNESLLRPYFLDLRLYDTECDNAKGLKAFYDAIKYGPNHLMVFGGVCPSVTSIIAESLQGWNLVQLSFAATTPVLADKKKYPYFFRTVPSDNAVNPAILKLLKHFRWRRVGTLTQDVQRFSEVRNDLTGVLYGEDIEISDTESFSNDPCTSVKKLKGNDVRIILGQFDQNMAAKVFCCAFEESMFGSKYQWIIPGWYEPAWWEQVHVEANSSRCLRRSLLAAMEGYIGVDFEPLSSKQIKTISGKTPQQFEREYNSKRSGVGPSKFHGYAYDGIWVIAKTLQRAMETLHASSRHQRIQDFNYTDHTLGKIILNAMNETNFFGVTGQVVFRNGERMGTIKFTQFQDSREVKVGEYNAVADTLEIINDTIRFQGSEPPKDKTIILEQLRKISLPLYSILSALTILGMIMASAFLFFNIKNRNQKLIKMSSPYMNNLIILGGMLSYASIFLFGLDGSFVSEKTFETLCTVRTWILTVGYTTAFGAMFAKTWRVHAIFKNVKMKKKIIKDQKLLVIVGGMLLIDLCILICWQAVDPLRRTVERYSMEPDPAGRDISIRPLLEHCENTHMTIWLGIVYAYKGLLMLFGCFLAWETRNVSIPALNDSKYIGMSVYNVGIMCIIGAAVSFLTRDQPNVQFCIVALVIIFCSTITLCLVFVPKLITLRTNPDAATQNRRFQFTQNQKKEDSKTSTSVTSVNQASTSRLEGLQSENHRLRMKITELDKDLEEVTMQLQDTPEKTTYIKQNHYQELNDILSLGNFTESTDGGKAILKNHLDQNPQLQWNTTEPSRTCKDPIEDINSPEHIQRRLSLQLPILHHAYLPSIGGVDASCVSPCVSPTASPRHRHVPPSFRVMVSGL
ASSAY_COMMENT: Inhibition of [3H]CGP-27492 binding to Gamma-aminobutyric acid type B receptor of rat cortex

CCP(=O)(O)CCCN : 1980 nM

Next:
# input Find the measured IC50: item `NCCC[PH](=O)O` , target or system GABA B receptor (Rattus norvegicus, UniProt O88871+Q9Z0U4).
# output 5.4 nM

---

SYSTEM_NAME: GABA-A receptor; anion channel
ASSAY_COMMENT: Inhibition of [3H]muscimol binding to GABA-A receptor of rat cortex
Type: tissue-based
TEST_CONTEXT: read-out: IC50
Below, each of the compounds is paired with its reported pIC50 value.
FYI, pIC50 means -log10 of a concentration in mol per litre.

Sample records with pIC50:
NCCC[PH](=O)O : 5.77
NC[C@@H](CC(=O)O)c1ccc(Cl)cc1 : 2.81
NC[C@H](CC(=O)O)c1ccc(Cl)cc1 : 3.02

# input Would you kindly share the measured pIC50 for NCC(CC(=O)O)c1ccc(Cl)cc1 (racemic) ?
# output 2.98
